From: patent US11993599B2

molecular target: BRG1 (Homo sapiens); construct: either BRM primary antibody (Cell signaling Cat #11966) or BRG primary antibody (Abcam, ab 110641); endogenous in cells; host or cells: SW1573; test: Immunofluorescence assay for BRG1 degradation in SW1573 cells; assay type: cell-based; settings: 20 hours incubation, immunofluorescence mean nuclear signal, read-out: BRG1 IF Degradation IC50
Sequence (P51532 whole entry): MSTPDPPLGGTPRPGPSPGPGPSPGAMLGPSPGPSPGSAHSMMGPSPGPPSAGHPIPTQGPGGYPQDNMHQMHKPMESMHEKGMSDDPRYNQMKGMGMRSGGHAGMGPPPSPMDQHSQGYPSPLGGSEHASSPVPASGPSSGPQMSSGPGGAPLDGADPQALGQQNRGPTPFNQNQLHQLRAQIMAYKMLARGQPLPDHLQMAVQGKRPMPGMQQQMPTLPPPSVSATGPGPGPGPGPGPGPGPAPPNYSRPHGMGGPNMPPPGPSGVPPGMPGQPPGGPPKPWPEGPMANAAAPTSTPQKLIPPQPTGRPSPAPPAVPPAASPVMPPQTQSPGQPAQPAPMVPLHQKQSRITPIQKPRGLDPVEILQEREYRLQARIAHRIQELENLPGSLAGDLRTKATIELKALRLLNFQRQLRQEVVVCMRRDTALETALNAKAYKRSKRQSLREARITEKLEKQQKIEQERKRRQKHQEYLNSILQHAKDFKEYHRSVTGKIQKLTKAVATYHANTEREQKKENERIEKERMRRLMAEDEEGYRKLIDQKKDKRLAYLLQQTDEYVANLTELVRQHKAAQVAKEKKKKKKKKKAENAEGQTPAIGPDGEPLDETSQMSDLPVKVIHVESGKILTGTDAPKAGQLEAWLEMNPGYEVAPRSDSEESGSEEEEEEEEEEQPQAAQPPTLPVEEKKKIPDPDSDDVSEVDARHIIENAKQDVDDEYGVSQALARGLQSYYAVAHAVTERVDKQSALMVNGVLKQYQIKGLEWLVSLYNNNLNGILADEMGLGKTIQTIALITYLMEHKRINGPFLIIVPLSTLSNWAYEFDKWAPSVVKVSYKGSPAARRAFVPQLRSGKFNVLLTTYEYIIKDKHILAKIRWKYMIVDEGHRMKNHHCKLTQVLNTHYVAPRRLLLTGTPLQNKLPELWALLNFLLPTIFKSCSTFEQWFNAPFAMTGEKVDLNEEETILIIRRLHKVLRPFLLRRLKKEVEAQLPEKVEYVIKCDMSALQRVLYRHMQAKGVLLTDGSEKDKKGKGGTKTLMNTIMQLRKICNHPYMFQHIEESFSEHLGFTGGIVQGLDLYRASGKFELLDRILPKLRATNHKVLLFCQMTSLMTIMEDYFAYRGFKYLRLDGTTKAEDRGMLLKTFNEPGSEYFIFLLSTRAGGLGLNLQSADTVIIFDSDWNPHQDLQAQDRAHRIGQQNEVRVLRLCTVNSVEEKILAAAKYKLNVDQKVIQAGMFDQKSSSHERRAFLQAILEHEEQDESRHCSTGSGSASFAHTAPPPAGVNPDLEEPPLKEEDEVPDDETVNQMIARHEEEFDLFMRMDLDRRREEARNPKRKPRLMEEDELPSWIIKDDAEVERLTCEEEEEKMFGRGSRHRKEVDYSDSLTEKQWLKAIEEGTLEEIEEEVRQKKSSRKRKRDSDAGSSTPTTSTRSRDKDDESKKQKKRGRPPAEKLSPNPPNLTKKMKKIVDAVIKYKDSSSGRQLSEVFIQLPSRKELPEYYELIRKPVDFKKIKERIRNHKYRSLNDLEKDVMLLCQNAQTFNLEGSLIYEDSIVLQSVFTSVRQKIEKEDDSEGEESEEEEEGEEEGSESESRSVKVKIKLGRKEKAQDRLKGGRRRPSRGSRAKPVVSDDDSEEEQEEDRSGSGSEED

Compound: Nc1nnc(-c2ccccc2O)cc1N1CC2(CN(c3ccnc(C#CCN4CCCCCC4)c3)C2)C1 [Compound 251]
Target system: BRG1 (Homo sapiens)
DC50: 0.01 to 0.1 µM

Compound: CNC(=O)C1CCCCN1CC#Cc1cc(N2C3CCC2CN(c2cc(-c4ccccc4O)nnc2N)C3)ccn1 (centres unmarked) [Compound 96]
Target system: BRG1 (Homo sapiens)
DC50: 0.01 to 0.1 µM

Compound: Nc1nnc(-c2ccccc2O)cc1N1CC2CCC(C1)N2c1ccnc(C#CCN2CCCCC(F)C2)c1 (centres unmarked) [Compound 194]
Target system: BRG1 (Homo sapiens)
DC50: < 0.01 µM

Compound: Nc1nnc(-c2ccccc2O)cc1N1CC2CCC(C1)N2c1ccnc(C#CCN2CCC3CC2CO3)c1 (centres unmarked) [Compound 104]
Target system: BRG1 (Homo sapiens)
DC50: < 0.01 µM

Compound: Nc1nnc(-c2ccccc2O)cc1N1CC2CCC(C1)N2c1ccnc(C#CC2CCCN2)c1 (centres unmarked) [Compound 14]
Target system: BRG1 (Homo sapiens)
DC50: 0.01 to 0.1 µM

Compound: COC(=O)C1CN(CC#Cc2cc(N3C4CCC3CN(c3cc(-c5ccccc5O)nnc3N)C4)ccn2)C1 [Compound 225]
Target system: BRG1 (Homo sapiens)
DC50: < 0.01 µM

Compound: Nc1nnc(-c2ccccc2O)cc1N1CC2CCC(C1)N2c1ccnc(C#CCN2CCNCC2)c1 [Compound 28]
Target system: BRG1 (Homo sapiens)
DC50: > 0.1 µM

Compound: Nc1nnc(-c2ccccc2O)cc1N1CC2CCC(C1)N2c1ccnc(C#CCN2C[C@@H]3C[C@@H](O)[C@H]2C3)c1 [Compound 109]
Target system: BRG1 (Homo sapiens)
DC50: < 0.01 µM

----------
Reported values of DC50 for individual entries
Molecular target: BRM (Homo sapiens, UniProt P51531)
Sequence (P51531 whole entry): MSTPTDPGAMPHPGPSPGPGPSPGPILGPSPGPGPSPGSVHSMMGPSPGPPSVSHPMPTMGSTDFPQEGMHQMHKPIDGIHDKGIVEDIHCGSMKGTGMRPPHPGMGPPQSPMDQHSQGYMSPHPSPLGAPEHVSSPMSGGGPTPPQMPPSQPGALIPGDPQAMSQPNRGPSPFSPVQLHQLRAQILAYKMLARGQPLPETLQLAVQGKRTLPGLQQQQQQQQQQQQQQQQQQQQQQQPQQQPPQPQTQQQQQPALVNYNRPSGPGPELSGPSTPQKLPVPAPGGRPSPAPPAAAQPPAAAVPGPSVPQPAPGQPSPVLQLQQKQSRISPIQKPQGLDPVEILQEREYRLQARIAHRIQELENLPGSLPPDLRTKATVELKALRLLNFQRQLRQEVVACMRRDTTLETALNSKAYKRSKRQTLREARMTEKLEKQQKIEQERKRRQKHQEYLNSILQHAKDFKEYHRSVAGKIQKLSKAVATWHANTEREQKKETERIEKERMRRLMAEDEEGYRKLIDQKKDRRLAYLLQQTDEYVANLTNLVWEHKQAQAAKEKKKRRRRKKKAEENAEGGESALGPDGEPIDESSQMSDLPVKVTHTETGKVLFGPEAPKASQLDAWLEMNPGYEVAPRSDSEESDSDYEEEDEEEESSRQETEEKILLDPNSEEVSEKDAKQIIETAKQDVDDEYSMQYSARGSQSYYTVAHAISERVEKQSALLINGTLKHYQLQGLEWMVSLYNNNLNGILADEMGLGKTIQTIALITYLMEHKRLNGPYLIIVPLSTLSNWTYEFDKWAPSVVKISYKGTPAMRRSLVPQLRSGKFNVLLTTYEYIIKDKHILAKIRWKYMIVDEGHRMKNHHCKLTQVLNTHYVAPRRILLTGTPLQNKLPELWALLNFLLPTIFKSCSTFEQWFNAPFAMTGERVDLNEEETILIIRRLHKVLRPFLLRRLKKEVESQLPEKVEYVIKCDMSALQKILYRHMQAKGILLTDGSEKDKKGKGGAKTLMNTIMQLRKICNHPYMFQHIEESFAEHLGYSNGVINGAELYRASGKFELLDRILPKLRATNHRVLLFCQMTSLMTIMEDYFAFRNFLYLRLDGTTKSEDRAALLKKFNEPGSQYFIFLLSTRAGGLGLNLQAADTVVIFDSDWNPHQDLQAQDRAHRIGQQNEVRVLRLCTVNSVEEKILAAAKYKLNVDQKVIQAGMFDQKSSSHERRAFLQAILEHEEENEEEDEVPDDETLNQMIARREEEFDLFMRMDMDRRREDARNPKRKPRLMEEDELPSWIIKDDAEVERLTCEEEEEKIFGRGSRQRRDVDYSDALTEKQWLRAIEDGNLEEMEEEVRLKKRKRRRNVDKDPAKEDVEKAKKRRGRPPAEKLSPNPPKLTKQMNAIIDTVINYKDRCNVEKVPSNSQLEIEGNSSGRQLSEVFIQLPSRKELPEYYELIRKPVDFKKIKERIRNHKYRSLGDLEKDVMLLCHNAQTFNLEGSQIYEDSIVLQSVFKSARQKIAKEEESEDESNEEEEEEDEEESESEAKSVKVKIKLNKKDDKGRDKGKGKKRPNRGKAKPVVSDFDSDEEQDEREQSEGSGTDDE
Test: Immunofluorescence assay for BRM degradation in SW1573 cells
Type: cell-based
Parameters: treated overnight at 4° C. with either BRM primary antibody (Cell signaling Cat #11966) or BRG primary antibody; endogenous in cells; host or cells: SW1573
Settings: 20 hours incubation, immunofluorescence mean nuclear signal, read-out: BRM IF Degradation IC50
Protocol: Example B-2: Immunofluorescence Assay for BRM and BRG1 Degraders SW1573 cells were seeded at 3000 cells/well in 384 well plates. The next day, compounds were added using an Echo dispenser. […] Harmony software (Perking Elmer) was used to quantify the mean nuclear signaling intensity of BRM or BRG signaling per cell in each well. Dose responses were determined from the concentration dependent response of mean nuclear signal intensity with data normalized to a known degrader control. […]

Compound: Nc1nnc(-c2ccccc2O)cc1N1CC2CCC(C1)N2c1ccnc(C#CCN2CCCCC2CO)c1 (centres unmarked)
DC50: 10 to 100 nM
--
Compound: Nc1nnc(-c2ccccc2O)cc1N1CC2CCC(C1)N2c1ccnc(C#CCN2CCCC(F)CC2)c1 (centres unmarked)
DC50: < 10 nM
--
Compound: Nc1nnc(-c2ccccc2O)cc1N1CC2CCC(C1)N2c1ccnc(C#CCN2CC(F)(F)C2)c1
DC50: 10 to 100 nM
--
Compound: Nc1nnc(-c2ccccc2O)cc1N1CC2CCC(C1)N2c1ccnc(C#CCCN2CCNCC2)c1
DC50: 10 to 100 nM
--
Compound: Nc1nnc(-c2ccccc2O)cc1N1CC2CCC(C1)N2c1ccnc(C#CCN2C[C@@H]3C[C@H]2C[C@H]3O)c1
DC50: < 10 nM
--
Compound: Nc1nnc(-c2ccccc2O)cc1N1CC2CCC(C1)N2c1ccnc(C#CCN2CC3(COCCO3)C2)c1
DC50: 10 to 100 nM
--
Compound: Nc1nnc(-c2ccccc2O)cc1N1CC2CCC(C1)N2c1ccnc(C#CCN2CC(Oc3ccccc3)C2)c1
DC50: 10 to 100 nM
--
Compound: N#Cc1ccc(C2CN(CC#Cc3cc(N4C5CCC4CN(c4cc(-c6ccccc6O)nnc4N)C5)ccn3)C2)cc1
DC50: 10 to 100 nM
--
Compound: CC1(O)CCCCN(CC#Cc2cc(N3C4CCC3CN(c3cc(-c5ccccc5O)nnc3N)C4)ccn2)C1 (centres unmarked)
DC50: 10 to 100 nM
--
Compound: Nc1nnc(-c2ccccc2O)cc1N1CC2CCC(C1)N2c1ccnc(C#CCN2C[C@@H]3C[C@@H](O)[C@H]2C3)c1
DC50: < 10 nM
--
Compound: Nc1nnc(-c2ccccc2O)cc1N1CC2CCC(C1)N2c1ccnc(C#CCN2CCS(=O)(=O)CC2)c1
DC50: > 100 nM
--
Compound: CO[C@H]1CCN(CC#Cc2cc(N3C4CCC3CN(c3cc(-c5ccccc5O)nnc3N)C4)ccn2)C1
DC50: 10 to 100 nM
--
Compound: N#CCC1CCN(CC#Cc2cc(N3C4CCC3CN(c3cc(-c5ccccc5O)nnc3N)C4)ccn2)CCC1(F)F (centres unmarked)
DC50: 10 to 100 nM
--
Compound: CNC(=O)C1COCCN1CC#Cc1cc(N2C3CCC2CN(c2cc(-c4ccccc4O)nnc2N)C3)ccn1 (centres unmarked)
DC50: 10 to 100 nM
--
Compound: COC(=O)C1CCN1CC#Cc1cc(N2C3CCC2CN(c2cc(-c4ccccc4O)nnc2N)C3)ccn1 (centres unmarked)
DC50: 10 to 100 nM
--
Compound: Nc1nnc(-c2ccccc2O)cc1N1CC2CCC(C1)N2c1ccnc(C#CCN2CCNCC2)c1
DC50: > 100 nM
--
Compound: CC1(CO)CCCN(CC#Cc2cc(N3C4CCC3CN(c3cc(-c5ccccc5O)nnc3N)C4)ccn2)CC1 (centres unmarked)
DC50: < 10 nM
--
Compound: Nc1nnc(-c2ccccc2O)cc1N1CC2CCC(C1)N2c1ccnc(C#CCN2CCNCC2=O)c1
DC50: 10 to 100 nM
--
Compound: Oc1ccccc1-c1cc2c(nn1)NC[C@H]1CN(c3ccnc(C#CCN4CCCCCC4)c3)CCN21 (single isomer, unassigned)
DC50: < 10 nM
--
Compound: CN1CC2(CCN(CC#Cc3cc(N4C5CCC4CN(c4cc(-c6ccccc6O)nnc4N)C5)ccn3)C2)C1
DC50: > 100 nM
--
Compound: Nc1nnc(-c2ccccc2O)cc1N1CC2CCC(C1)N2c1ccnc(C#CCN2CC3CC2(CO)C3)c1
DC50: 10 to 100 nM
--
Compound: CNC(=O)C12CC(CN1CC#Cc1cc(N3C4CCC3CN(c3cc(-c5ccccc5O)nnc3N)C4)ccn1)C2
DC50: 10 to 100 nM
--
Compound: CC1CN(CC#Cc2cc(N3C4CCC3CN(c3cc(-c5ccccc5O)nnc3N)C4)ccn2)C1C (centres unmarked)
DC50: < 10 nM
--
Compound: Nc1nnc(-c2ccccc2O)cc1N1CC2CCC(C1)N2c1ccnc(C#CC2CCCN2)c1 (centres unmarked)
DC50: < 10 nM
--
Compound: Nc1nnc(-c2ccccc2O)cc1N1CC2CCC(C1)N2c1ccnc(C#CCN2CC3COC(C3)C2)c1 (centres unmarked)
DC50: 10 to 100 nM
--
Compound: C[C@@H]1CN(CC#Cc2cc(N3C4CCC3CN(c3cc(-c5ccccc5O)nnc3N)C4)ccn2)C[C@H](C)O1
DC50: 10 to 100 nM
--
Compound: Nc1nnc(-c2ccccc2O)cc1N1CC2CCC(C1)N2c1ccnc(C#CCN2CC3(CCCCC3)C2)c1
DC50: 10 to 100 nM
--
Compound: CC1CCCCCN1CC#Cc1cc(N2C3CCC2CN(c2cc(-c4ccccc4O)nnc2N)C3)ccn1 (centres unmarked)
DC50: < 10 nM
--
Compound: Nc1nnc(-c2ccccc2O)cc1N1CC2CCC(C1)N2c1ccnc(C#CCN2CC3CCCC3C2)c1 (centres unmarked)
DC50: < 10 nM

----------
Target: BRM (Homo sapiens, UniProt P51531)
Assay: Immunofluorescence assay for BRM degradation in SW1573 cells
Format: cell-based
Parameters: treated overnight at 4° C. with either BRM primary antibody (Cell signaling Cat #11966) or BRG primary antibody; endogenous in cells; host or cells: SW1573
Settings: 20 hours incubation, immunofluorescence mean nuclear signal, read-out: BRM IF Degradation IC50
Procedure: Example B-2: Immunofluorescence Assay for BRM and BRG1 Degraders SW1573 cells were seeded at 3000 cells/well in 384 well plates. The next day, compounds were added using an Echo dispenser. […] Harmony software (Perking Elmer) was used to quantify the mean nuclear signaling intensity of BRM or BRG signaling per cell in each well. Dose responses were determined from the concentration dependent response of mean nuclear signal intensity with data normalized to a known degrader control. […]

Compound: NCC#Cc1cc(N2C3CCC2CN(c2cc(-c4ccccc4O)nnc2N)C3)ccn1
Target system: BRM (Homo sapiens, UniProt P51531)
DC50: 10 to 100 nM

Compound: Nc1nnc(-c2ccccc2O)cc1N1CC2CCC(C1)N2c1ccnc(C#CCN2C3CCCC2COC3)c1
Target system: BRM (Homo sapiens, UniProt P51531)
DC50: < 10 nM

Compound: Nc1nnc(-c2ccccc2O)cc1N1CC2CCC(C1)N2c1ccnc(C#CCN2CC3CCCC2C3)c1 (stereo not shown)
Target system: BRM (Homo sapiens, UniProt P51531)
DC50: < 10 nM

Compound: Nc1nnc(-c2ccccc2O)cc1N1CC2CCC(C1)N2c1ccnc(C#CCN2CC3(CC(F)C3)C2)c1
Target system: BRM (Homo sapiens, UniProt P51531)
DC50: < 10 nM

Compound: Nc1nnc(-c2ccccc2O)cc1N1CC2CCC(C1)N2c1ccnc(C#CCN2CCC3CCC2C3)c1 (stereo not shown)
Target system: BRM (Homo sapiens, UniProt P51531)
DC50: < 10 nM

Compound: Nc1nnc(-c2ccccc2O)cc1N1CC2CCC(C1)N2c1ccnc(C#CCN2CCCC(F)(F)C(F)C2)c1 (stereo not shown)
Target system: BRM (Homo sapiens, UniProt P51531)
DC50: < 10 nM

Compound: CS(=O)(=O)N1CCC2(CN(CC#Cc3cc(N4C5CCC4CN(c4cc(-c6ccccc6O)nnc4N)C5)ccn3)C2)C1
Target system: BRM (Homo sapiens, UniProt P51531)
DC50: > 100 nM
